Organism: Rattus norvegicus
Assay: DrugMatrix - Regimen: Daily Repeat
Format: toxicity, organism-based, Sprague-Dawley
Set-up: regimen Daily Repeat, gender Male, age 6-8 weeks
Conditions: in vivo, po, 1500 mg/kg, 72 h, tissue Plasma, route oral GAVAGE, dose level High, time 3 day, vehicle .5 % CMC
Below, each entry is listed alongside its reported TOTAL BILIRUBIN.
Value expressed in mg/dL; do not type the unit.

Look over these answered cases.
CCOC(=O)[C@H](CCc1ccccc1)N[C@@H](C)C(=O)N1[C@H](C(=O)O)C[C@@H]2CCC[C@@H]21 ... 0.17
NS(=O)(=O)c1cc2c(cc1Cl)NCNS2(=O)=O [HYDROCHLOROTHIAZIDE] ... 0.17
COC(=O)c1ccc(O)cc1 [METHYLPARABEN] ... 0.23

Exercise: // returns reported TOTAL BILIRUBIN for input O=C1CCc2cc(OCCCCc3nnnn3C3CCCCC3)ccc2N1 [CILOSTAZOL]
Key: 0.43
